Below is a list of entries, each paired with its recorded Rape plant response rating value.
test system: rape; assay: Test B pre/postemergence rape; format: in vivo, Brassica napus; conditions: Rate 500 g/ha, Postemergence; scale 0 to 10, 0 no effect, 10 complete control
parameter.measured: Rape plant response rating

query.smiles: Cc1nc(C)c(Cn2c(=O)on(C(=O)N(c3ccc(F)cc3F)C(C)C)c2=O)s1
parameter.measured: Rape plant response rating
value: 3
//
query.smiles: COc1cc(C)cc(C)c1-n1c(=O)on(C(=O)N(c2ccc(F)cc2)C(C)C)c1=O
parameter.measured: Rape plant response rating
value: 0
//
query.smiles: CN(C(=O)n1oc(=O)n(Cc2cccs2)c1=O)c1ccccc1
parameter.measured: Rape plant response rating
value: 0
//
query.smiles: CC(C)N(C(=O)n1oc(=O)n(Cc2ccccn2)c1=O)c1ccc(F)cc1
parameter.measured: Rape plant response rating
value: 2
//
query.smiles: CCN(Cc1ccccc1)C(=O)n1oc(=O)n(-c2ccccc2C)c1=O
parameter.measured: Rape plant response rating
value: 0
//
query.smiles: Cc1ccccc1Cn1c(=O)on(C(=O)N(C)c2ccccc2)c1=O
parameter.measured: Rape plant response rating
value: 0

---

system: duck salad; assay: Test B flood test duck salad; format: in vivo, Heteranthera limosa; conditions: Rate 250 g/ha; Pre-emergence (flood test species); scale 0 to 10, 0 is no effect, 10 is complete control
Below is a list of entries, each paired with its recorded Ducksalad plant response rating value.

molecule: CC(C)N(C(=O)n1oc(=O)n(CCc2ccccc2)c1=O)c1ccccc1
Ducksalad plant response rating: 0
--
molecule: CC(C)N(C(=O)n1oc(=O)n(CCCNC(=O)CCl)c1=O)c1ccccc1
Ducksalad plant response rating: 0
--
molecule: COC(C)n1c(=O)on(C(=O)N(c2ccc(F)cc2F)C(C)C)c1=O (centres unmarked)
Ducksalad plant response rating: 0
--
molecule: CC(C)N(C(=O)n1oc(=O)n(CC2=NOCC2)c1=O)c1ccccc1
Ducksalad plant response rating: 0
--
molecule: COP(=O)(CCn1c(=O)on(C(=O)N(c2ccc(F)cc2)C(C)C)c1=O)OC
Ducksalad plant response rating: 0

---

tested on: surinam grass; experiment: Test B pre/postemergence surinam grass; format: in vivo, Brachiaria decumbens; settings: Postemergence, Rate 125 g/ha; scale 0 to 10, 0 is no effect, 10 is complete control

query.smiles: CC(=O)OCCCCn1c(=O)on(C(=O)N(c2ccc(Cl)cc2)C(C)C)c1=O
B. signalgrass plant response rating: 0
//
query.smiles: CC(C)N(C(=O)n1oc(=O)n(C[Si](C)(C)C)c1=O)c1ccc(Cl)cc1
B. signalgrass plant response rating: 0
//
query.smiles: CC(C)N(C(=O)n1oc(=O)n(CCc2ccccc2)c1=O)c1ccccc1
B. signalgrass plant response rating: 0

---

test system: rape; test: Test B pre/postemergence rape; type: in vivo, Brassica napus; conditions: Postemergence, Rate 250 g/ha; scale 0 to 10, 0 no effect, 10 complete control
parameter.measured: Rape plant response rating

query.smiles: COc1cccc(C)c1-n1c(=O)on(C(=O)N(c2ccccc2)C(C)C)c1=O
value: 0

query.smiles: Cc1ccccc1Cn1c(=O)on(C(=O)N(C)c2ccccc2)c1=O
value: 0

query.smiles: COc1cccc(C)c1-n1c(=O)on(C(=O)N(c2ccc(F)cc2)C(C)C)c1=O
value: 0

query.smiles: Cc1ccccc1-n1c(=O)on(C(=O)N(c2ccc(F)cc2)C2CC2)c1=O
value: 0

query.smiles: CC(C)N(C(=O)n1oc(=O)n(Cc2ccccc2)c1=O)c1ccc(Cl)cc1
value: 0

query.smiles: COc1ccc(-n2c(=O)on(C(=O)N(c3ccc(F)cc3)C(C)C)c2=O)cc1
value: 5

query.smiles: CC(C)N(C(=O)n1oc(=O)n(C(C)C)c1=O)c1ccccc1
value: 7

---

test system: rape; assay: Test B pre/postemergence rape; format: in vivo, Brassica napus; details: Preemergence, Rate 62 g/ha; scale of 0 to 10 where 0 is no effect and 10 is complete control
Below is a list of entries, each paired with its recorded Rape plant response rating value.
parameter.measured: Rape plant response rating

query.smiles: CC(C)N(C(=O)n1oc(=O)n(CC2=NOCC2)c1=O)c1ccccc1
measured.target: rape
value: 0

query.smiles: CCCCCCn1c(=O)on(C(=O)N(c2ccc(F)cc2F)C(C)C)c1=O
measured.target: rape
value: 0

query.smiles: Cc1nsc(C)c1-n1c(=O)on(C(=O)N(c2ccc(F)cc2F)C(C)C)c1=O
measured.target: rape
value: 0

query.smiles: CC(C)N(C(=O)n1oc(=O)n(COCc2ccccc2)c1=O)c1ccc(F)cc1
measured.target: rape
value: 0

query.smiles: Cc1ccccc1-n1c(=O)on(C(=O)N(c2ccc(Oc3ccccc3)cc2)C(C)C)c1=O
measured.target: rape
value: 0

query.smiles: Cc1nc(C)c(Cn2c(=O)on(C(=O)N(c3ccc(F)cc3F)C(C)C)c2=O)s1
measured.target: rape
value: 0

query.smiles: CC(C)N(C(=O)n1oc(=O)n(C[C@H](C)Cl)c1=O)c1ccc(F)cc1F
measured.target: rape
value: 2

query.smiles: CC(C)N(C(=O)n1oc(=O)n(CCCCF)c1=O)c1ccc(F)cc1
measured.target: rape
value: 0

query.smiles: COc1cc(C)cc(C)c1-n1c(=O)on(C(=O)N(c2ccc(F)cc2)C(C)C)c1=O
measured.target: rape
value: 0

---

Below is a list of entries, each paired with its recorded Rape plant response rating (0 to 10 scale) value.
test system: rape; assay: Test B pre/postemergence rape; assay type: in vivo, Brassica napus; conditions: Preemergence, Rate 250 g/ha
parameter.measured: Rape plant response rating (0 to 10 scale)

molecule: CCC(=O)Cn1c(=O)on(C(=O)N(c2ccc(F)cc2F)C(C)C)c1=O [Compound 524]
measured.target: rape
value: 7
//
molecule: CCCCCn1c(=O)on(C(=O)N(c2ccccc2)C(C)C)c1=O [Compound 557]
measured.target: rape
value: 0
//
molecule: CC(C)N(C(=O)n1oc(=O)n(C[Si](C)(C)C)c1=O)c1ccc(Cl)cc1 [Compound 548]
measured.target: rape
value: 2
//
molecule: C=CCCCn1c(=O)on(C(=O)N(c2ccccc2)C(C)C)c1=O [Compound 575]
measured.target: rape
value: 2

---

system: surinam grass; assay: Test B pre/postemergence surinam grass; format: in vivo, Brachiaria decumbens; conditions: Rate 500 g/ha, Postemergence; scale 0 to 10, 0 no effect, 10 complete control
parameter.measured: B. signalgrass plant response rating

compound: CC(C)N(C(=O)n1oc(=O)n(Cc2ccccn2)c1=O)c1ccc(F)cc1
value: 3
--
compound: CC(C)N(C(=O)n1oc(=O)n(COCc2ccccc2)c1=O)c1ccc(F)cc1
value: 0
--
compound: Cc1ccccc1-n1c(=O)on(C(=O)N(c2c(F)cccc2F)C(C)C)c1=O
value: 0
--
compound: [2H]C([2H])([2H])n1c(=O)on(C(=O)N(c2ccc(F)cc2)C(C)C)c1=O
value: 8
--
compound: CCOC(=O)C(C)N(C(=O)n1oc(=O)n(-c2ccccc2C)c1=O)c1ccc(F)cc1 (stereo not shown)
value: 0
--
compound: CCCCCCCCCCCCCCCCCCCn1c(=O)on(C(=O)N(c2ccc(F)cc2)C(C)C)c1=O
value: 0
--
compound: CC(C)N(C(=O)n1oc(=O)n(Cc2ccccc2-c2ccccc2)c1=O)c1ccc(F)cc1
value: 0
--
compound: Cc1ccccc1-n1c(=O)on(C(=O)N(c2cccc(F)c2F)C(C)C)c1=O
value: 0
--
compound: Cc1nsc(C)c1-n1c(=O)on(C(=O)N(c2ccc(F)cc2F)C(C)C)c1=O
value: 0
--
compound: CC(C)N(C(=O)n1oc(=O)n(C2CCCC2)c1=O)c1ccc(F)cc1
value: 5
--
compound: Cc1nc(C)c(Cn2c(=O)on(C(=O)N(c3ccc(F)cc3F)C(C)C)c2=O)s1
value: 1
--
compound: COc1cc(C)cc(C)c1-n1c(=O)on(C(=O)N(c2ccc(F)cc2)C(C)C)c1=O
value: 1
--
compound: CCN(C(=O)n1oc(=O)n(C(C)C)c1=O)C1CCCCC1
value: 0

---

test system: blackgrass; assay: Test B pre/postemergence blackgrass; assay type: in vivo, Alopecurus myosuroides; conditions: Postemergence, Rate 62 g/ha; scale 0 to 10, 0 is no effect, 10 is complete control

compound: Cc1ccccc1-n1c(=O)on(C(=O)N(c2ccc(F)cc2)C2CC2)c1=O [Compound 37]
measured.target: blackgrass
Blackgrass plant response rating: 0
--
compound: COc1cccc(C)c1-n1c(=O)on(C(=O)N(c2ccccc2)C(C)C)c1=O [Compound 73]
measured.target: blackgrass
Blackgrass plant response rating: 0
--
compound: CC(C)N(C(=O)n1oc(=O)n(-c2ccccc2OC(F)(F)F)c1=O)c1ccc(F)cc1 [Compound 14]
measured.target: blackgrass
Blackgrass plant response rating: 0
--
compound: Cc1ccccc1Cn1c(=O)on(C(=O)N(C)c2ccccc2)c1=O [Compound 85]
measured.target: blackgrass
Blackgrass plant response rating: 0
--
compound: CCN(C(=O)n1oc(=O)n(-c2ccc(F)cc2F)c1=O)C1CCCCC1 [Compound 23]
measured.target: blackgrass
Blackgrass plant response rating: 0
--
compound: CC(C)N(C(=O)n1oc(=O)n(-c2ccc(F)cc2F)c1=O)c1ccc(F)cc1F [Compound 22]
measured.target: blackgrass
Blackgrass plant response rating: 1
--
compound: Cc1ccc(-n2c(=O)on(C(=O)N(c3ccc(F)cc3F)C(C)C)c2=O)c(C)c1 [Compound 24]
measured.target: blackgrass
Blackgrass plant response rating: 0
--
compound: CCN(Cc1ccccc1)C(=O)n1oc(=O)n(-c2ccccc2C)c1=O [Compound 71]
measured.target: blackgrass
Blackgrass plant response rating: 0
